The origin of these recorded values is patent US20250250357A1.

# Maximum mean fluorescence intensity annotations
Biological target: T1, monkey MSLN full-length protein (NCBI: XP_028696439.1) expressed on HEK293T-monkey MSLN cells (monkey)
T1 construct: Whole encoded precursor
T1 chain: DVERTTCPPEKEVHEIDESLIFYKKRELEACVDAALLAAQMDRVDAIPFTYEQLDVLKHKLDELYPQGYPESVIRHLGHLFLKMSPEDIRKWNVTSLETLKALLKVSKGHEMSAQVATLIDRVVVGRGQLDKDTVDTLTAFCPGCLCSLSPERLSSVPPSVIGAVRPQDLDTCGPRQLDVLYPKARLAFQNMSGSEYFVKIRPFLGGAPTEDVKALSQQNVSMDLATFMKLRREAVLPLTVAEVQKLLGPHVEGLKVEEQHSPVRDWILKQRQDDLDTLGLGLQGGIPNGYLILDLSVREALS
Test: FACS on HEK293T-monkey MSLN cells;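 also: flow cytometry binding of chimeric antibodies to the cells, with a 2 h incubation on ice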
// return a plain number; no unit text

In the examples that follow, each entry is paired with its recorded Maximum mean fluorescence intensity.
1. S009-F7.44.20 (antibody, human IgG1, kappa, V domains shown, human-murine chimeric antibody, human IgG1/kappa constant regions) VH: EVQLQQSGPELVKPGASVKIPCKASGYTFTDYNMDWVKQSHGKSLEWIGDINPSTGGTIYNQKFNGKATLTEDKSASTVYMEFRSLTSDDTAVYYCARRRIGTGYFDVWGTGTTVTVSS VL: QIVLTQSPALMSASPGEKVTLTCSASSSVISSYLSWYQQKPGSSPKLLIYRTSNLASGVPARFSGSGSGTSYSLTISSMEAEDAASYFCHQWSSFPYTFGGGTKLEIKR ... 45600
2. S009-F7.18.10 (antibody, human IgG1, kappa, V domains shown, human-murine chimeric antibody, human IgG1/kappa constant regions) VH: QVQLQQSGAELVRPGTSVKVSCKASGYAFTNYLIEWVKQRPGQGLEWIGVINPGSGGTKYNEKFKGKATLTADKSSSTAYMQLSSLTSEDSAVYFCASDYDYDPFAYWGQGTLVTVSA VL: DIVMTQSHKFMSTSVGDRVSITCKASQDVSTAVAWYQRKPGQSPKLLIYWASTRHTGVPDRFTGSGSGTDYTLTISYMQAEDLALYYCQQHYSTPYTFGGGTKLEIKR ... 50600
3. S009-F7.6.17 (antibody, human IgG1, kappa, V domains shown, human-murine chimeric antibody, human IgG1/kappa constant regions) VH: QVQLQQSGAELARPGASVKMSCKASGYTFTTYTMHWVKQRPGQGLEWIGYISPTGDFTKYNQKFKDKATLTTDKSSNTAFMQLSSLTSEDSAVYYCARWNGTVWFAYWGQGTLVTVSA VL: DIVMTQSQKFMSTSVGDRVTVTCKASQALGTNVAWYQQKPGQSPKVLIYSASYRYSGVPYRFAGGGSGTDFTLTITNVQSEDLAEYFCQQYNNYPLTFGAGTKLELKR ... 56100
4. S009-F7.67.12 (antibody, human IgG1, kappa, V domains shown, human-murine chimeric antibody, human IgG1/kappa constant regions) VH: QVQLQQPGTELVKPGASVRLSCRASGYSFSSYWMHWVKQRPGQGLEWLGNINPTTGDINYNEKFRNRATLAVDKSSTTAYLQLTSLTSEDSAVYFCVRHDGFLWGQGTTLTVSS VL: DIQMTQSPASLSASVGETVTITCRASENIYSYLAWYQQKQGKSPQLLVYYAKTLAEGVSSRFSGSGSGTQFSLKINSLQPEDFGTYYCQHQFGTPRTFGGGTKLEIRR ... 59300

// returns reported Maximum mean fluorescence intensity for input S009-F7.26.15 (antibody, human IgG1, kappa, V domains shown, human-murine chimeric antibody, human IgG1/kappa constant regions) VH: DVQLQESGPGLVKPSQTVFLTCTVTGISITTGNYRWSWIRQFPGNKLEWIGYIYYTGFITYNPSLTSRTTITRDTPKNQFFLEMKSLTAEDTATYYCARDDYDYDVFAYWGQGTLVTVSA VL: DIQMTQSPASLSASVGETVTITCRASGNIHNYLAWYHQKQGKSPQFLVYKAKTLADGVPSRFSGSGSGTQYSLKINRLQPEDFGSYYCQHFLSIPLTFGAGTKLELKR
108
